test-protocol: Bioavailability in mouse plasma at 5 umol/kg, iv and 30 umol/kg, po
Format: ADME, organism-based
Exercise: state measured bioavailability for each of the compounds provided.
Answers are plain numbers, in %.

[[record]]
compound = "CC(Nc1ccc(F)c(F)c1)c1cc(C(=O)N(C)C)cn2c(=O)cc(N3CCOCC3)nc12 (single isomer, unassigned; (-))"
measured_metric = "bioavailability"
test_result = 35


For each of the items listed, what is its bioavailability?
1. C[C@@H](Nc1cc(F)cc(F)c1)c1cc(C(=O)N(C)C)cn2c(=O)cc(N3CCOCC3)nc12
2. CC(Nc1ccc(F)cc1)c1cc(C(=O)N(C)C)cn2c(=O)cc(N3CCOCC3)nc12 (single isomer, unassigned; (-))
3. CC(Nc1cccc(Cl)c1F)c1cc(C(=O)NCCN(C)C)cn2c(=O)cc(N3CCOCC3)nc12 (single isomer, unassigned; (-))

[31, 70, 39]
